# Test system: KRas G12D mutant
# measurementNotes: Ras GTP Binding Domain Inhibition Assay (Ras Superfamily Assay)
# runParameters: 20 μM compound, without SOS
Counter-ions that a name gives are not always drawn.
observationType: KRas G12D mutant: % inh.

Some solved entries appear below for comparison.
{"compound": "COc1cccc(-c2cn3nc(-c4nccn4C)nc(O)c3c2C)c1Cl [Compound 15]", "reportedValue": "A (A = 1-25% inhibition)"}
{"compound": "CO[C@H]1CC[C@@H](Nc2nc(-c3nccn3C)nn3cc(-c4ccn(C(C)C)n4)c(-c4ccccc4)c23)C1 (racemic) [Compound 18, hydrochloride]", "reportedValue": "A (A = 1-25% inhibition)"}
{"compound": "CO[C@H]1CC[C@H](Nc2nc(-c3nccn3C)nn3cc(-c4ccn(C)n4)c(C(=O)NC4CC4)c23)C1 (racemic) [Compound 182]", "reportedValue": "A (A = 1-25% inhibition)"}
{"compound": "COc1cc(-c2cn3nc(-c4nccn4C)nc(N[C@H]4C[C@@H](OC)C4)c3c2C)ccn1 [Compound 162]", "reportedValue": "0 (0 = 0% inhibition)"}
{"compound": "CO[C@H]1CC[C@@H](Nc2nc(-c3ccccn3)nn3cc(-c4ccn(C(C)C)n4)c(C)c23)C1 (racemic) [Compound 9]", "reportedValue": "0 (0 = 0% inhibition)"}

Provide only the value of recorded KRas G12D mutant: % inh. for COc1nccc(Nc2nc(-c3nccn3C)nn3cc(-c4ccn(C(C)C)n4)c(C)c23)n1 [Compound 86] A (A = 1-25% inhibition)

Provide only the value of recorded KRas G12D mutant: % inh. for COc1cc(-c2cn3nc(-c4nccn4C)nc(N[C@@H]4CC[C@H](OC)C4)c3c2C)ccn1 (racemic) [Compound 164] A (A = 1-25% inhibition)

Provide only the value of recorded KRas G12D mutant: % inh. for COc1cccc(Nc2nc(-c3nccn3C)nn3cc(-c4ccn(C(C)C)n4)c(-c4ccccc4)c23)n1 [Compound 23] A (A = 1-25% inhibition)
